Reported pKd values for the following binders.
experimental-target: T1, monomeric human TIGIT (Sino Biological 10917-H08H) (human, UniProt Q495A1 22-138, biotinylated in the MSD-SET assay)
T1 construct: Bought protein; also called Human TIGIT monomer; Human TIGIT-His; not shown: His tag
T1 sequence: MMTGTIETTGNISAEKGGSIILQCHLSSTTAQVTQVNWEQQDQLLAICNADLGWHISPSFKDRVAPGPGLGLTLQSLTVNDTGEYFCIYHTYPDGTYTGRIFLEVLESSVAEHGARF
test: BLI (ForteBio Octet RED384), IgG on AHQ sensor, 100 nM antigen, 1:1 model
Lab note: report pKd as minus log10 of the concentration in molar units, number only.

# binder, pKd
rows = [
    ("Clone 25 (antibody, V domains shown, Fully human IgG produced in yeast; also called anti-TIGIT clone 25) VH: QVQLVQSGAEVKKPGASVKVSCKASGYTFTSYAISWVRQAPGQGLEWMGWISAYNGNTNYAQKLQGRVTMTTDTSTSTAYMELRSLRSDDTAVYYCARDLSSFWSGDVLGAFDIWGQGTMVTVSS VL: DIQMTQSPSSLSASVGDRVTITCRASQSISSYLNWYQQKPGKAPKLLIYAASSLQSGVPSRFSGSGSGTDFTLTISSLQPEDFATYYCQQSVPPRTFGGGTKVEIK", 9.21),
    ("Clone 2 (antibody, V domains shown, Fully human IgG produced in yeast; also called anti-TIGIT antibody clone 2) VH: EVQLVESGGGLVQPGGSLRLSCAASGFTFSDHYMDWVRQAPGKGLEWVGRTRNKANSYTTEYAASVKGRFTISRDDSKNSLYLQMNSLKTEDTAVYYCARGQYYYGSSSRGYYYMDVWGQGTTVTVSS VL: EIVLTQSPGTLSLSPGERATLSCRASQSVSSSYLAWYQQKPGQAPRLLIYGASSRATGIPDRFSGSGSGTDFTLTISRLEPEDFAVYYCQQAVPSPLTFGGGTKVEIK", 8.00),
]

// switching to the query binder
Lookup: // lookup pKd for Clone 21 (antibody, V domains shown, Fully human IgG produced in yeast) VH: QLQLQESGPGLVKPSETLSLTCTVSGGSISSSSYYWGWIRQPPGKGLEWIGSIYYSGSTYYNPSLKSRVTISVDTSKNQFSLKLSSVTAADTAVYYCARDPLYQDAPFDYWGQGTLVTVSS VL: EIVLTQSPATLSLSPGERATLSCRASQSVSSYLAWYQQKPGQAPRLLIYDASNRATGIPARFSGSGSGTDFTLTISSLEPEDFAVYYCQQRANFPTFGGGTKVEIK
Found: 8.66
